Test system: THP-1
Test: Cytotoxicity against human THP1 cells harboring NFkB-Luc assessed as LDH release at 10'7 M after 24 hrs by spectrophotometric method relative to control
Type: cell-based
Settings: thp-1, 24 h
MEASURED ENDPOINT: fold change (FC)

INSERT INTO measurements (mol_smiles, measured_endpoint, reported_value) VALUES
  ('CCCCC[C@@H](O)c1nc(-c2ccccc2)n(-c2ccccc2)c1/C=C/[C@@H](O)[C@@H](O)CCCC(=O)OC', 'fold change (FC)', 1.1),
  ('CCCCC[C@H](O)c1nc(-c2ccccc2)n(-c2ccccc2)c1/C=C/[C@@H](O)[C@@H](O)CCCC(=O)OC', 'fold change (FC)', 1.4),
  ('CCCCC[C@@H](O)c1c(/C=C/[C@@H](O)[C@@H](O)CCCC(=O)OC)nc(C)n1C', 'fold change (FC)', 0.9),
  ('CCCCC[C@H](O)c1nc(-c2ccccc2)oc1/C=C/[C@@H](O)[C@@H](O)CCCC(=O)OC(C)C', 'fold change (FC)', 1);
